- targetOfAssay: Serine/threonine-protein kinase B-raf (Homo sapiens, UniProt P15056, V600E)
- Sequence (P15056 2-766 V600E limits assumed): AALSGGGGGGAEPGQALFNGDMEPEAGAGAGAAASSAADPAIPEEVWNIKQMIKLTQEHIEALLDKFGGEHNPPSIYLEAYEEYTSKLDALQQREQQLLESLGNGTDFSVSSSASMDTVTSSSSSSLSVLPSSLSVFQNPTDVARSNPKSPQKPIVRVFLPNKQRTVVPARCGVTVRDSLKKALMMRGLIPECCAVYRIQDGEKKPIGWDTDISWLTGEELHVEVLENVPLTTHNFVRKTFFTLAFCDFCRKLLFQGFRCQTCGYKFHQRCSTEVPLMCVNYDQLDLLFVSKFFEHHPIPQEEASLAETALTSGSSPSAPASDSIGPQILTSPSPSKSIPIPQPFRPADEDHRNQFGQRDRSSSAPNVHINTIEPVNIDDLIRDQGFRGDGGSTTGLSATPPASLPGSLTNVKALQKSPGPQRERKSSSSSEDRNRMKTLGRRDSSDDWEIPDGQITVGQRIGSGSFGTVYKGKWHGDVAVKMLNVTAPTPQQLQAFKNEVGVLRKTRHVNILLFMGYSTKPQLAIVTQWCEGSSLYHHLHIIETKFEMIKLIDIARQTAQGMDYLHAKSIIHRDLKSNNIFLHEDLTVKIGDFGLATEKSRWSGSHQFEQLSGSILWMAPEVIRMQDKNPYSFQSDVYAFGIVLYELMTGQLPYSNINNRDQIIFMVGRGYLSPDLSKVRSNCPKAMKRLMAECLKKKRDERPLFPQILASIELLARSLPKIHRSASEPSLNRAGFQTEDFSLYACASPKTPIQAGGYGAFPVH
- assayText: Inhibition of BRAF V600E mutant ERK phosphorylation in human WM266.4 cells
- Format: cell-based
Returns: string. Value is True if measured IC50 is below 1000 nM, and False if it is greater than or equal to it.

**Query** Here's an entry: Cc1ccc(-n2nc(C(C)(C)C)cc2NC(=O)Nc2ccc(Sc3ccnc4[nH]c(=O)[nH]c34)cc2)cc1 . Is its IC50 below 1000 nM?
**Result** True

**Query** Would you kindly verify if IC50 of Cn1c(=O)[nH]c2c(Oc3ccc(NC(=O)Nc4cc(C(C)(C)C)nn4-c4ccccc4)cc3)ccnc21 is strictly less than 1000 nM?
**Result** True

**Query** Please let me know if Cc1ccc(-n2nc(C(C)(C)C)cc2NC(=O)Nc2ccc(Oc3ccnc4[nH]c(=O)n(C)c34)c3ccccc23)cc1 shows IC50 below 1000 nM.
**Result** True

**Query** In the record for O=C(Nc1ccc(Oc2ccnc3[nH]c(=O)[nH]c23)cc1)Nc1nnc(C2CCCO2)s1 (stereo not drawn) , is IC50 less than 1000 nM?
**Result** False

**Query** Determine whether this molecule shows IC50 lower than 1000 nM (ties excluded): Cn1c(=O)[nH]c2nccc(Oc3ccc(NC(=O)Nc4cc(C(C)(C)C)nn4-c4ccc(F)cc4)c4ccccc34)c21
**Result** True

**Query** Regarding CC(C)(C)c1cc(NC(=O)Nc2ccc(Oc3ccnc4[nH]c(=O)[nH]c34)cc2)n(-c2ccc(F)cc2)n1 , kindly confirm whether its IC50 is beneath 1000 nM.
**Result** True

**Query** Threshold test, IC50 < 1000 nM: Cn1c(=O)[nH]c2nccc(Oc3ccc(NC(=O)Nc4cc(C(C)(C)C)nn4-c4ccccc4)cc3)c21
**Result** True

====

- targetOfAssay: Serine/threonine-protein kinase B-raf (Homo sapiens, UniProt P15056, V600E)
- assayText: Inhibition of BRAF V600E mutant ERK phosphorylation in human WM266.4 cells
- Type: cell-based
pIC50: −log10 of the molar value.
Binary call on pIC50: condition met from 6 upward, condition not met beneath that.

Please review the following examples before continuing.
> print(dat)
                    compoundstructurestring                             targetofassay     classlabel
1  Cn1nc(C(C)(C)C)cc1NC(=O)Nc1ccc(Oc2ccnc3[nH]c(=O)n(C)c23)c2ccccc12  Serine/threonine-protein kinase B-raf (Homo sapiens, UniProt P15056, V600E)  condition met
2  Cc1ccc(-n2nc(C(C)(C)C)cc2NC(=O)Nc2ccc(Oc3ccnc4c3[nH]c(=O)n4C)c3ccccc23)cc1  Serine/threonine-protein kinase B-raf (Homo sapiens, UniProt P15056, V600E)  condition met
3  Cc1ccc(-n2nc(C(C)(C)C)cc2NC(=O)Nc2ccc(Oc3ccnc4c3n(C)c(=O)n4C)cc2)cc1  Serine/threonine-protein kinase B-raf (Homo sapiens, UniProt P15056, V600E)  condition met

**Query** Entry CCCn1nc(C(C)(C)C)cc1NC(=O)Nc1ccc(Oc2ccnc3[nH]c(=O)[nH]c23)cc1 : is its pIC50 no less than 6?
**Result** condition not met

**Query** Has Cn1nc(C(C)(C)C)cc1NC(=O)Nc1ccc(Oc2ccnc3[nH]c(=O)n(C)c23)cc1 a recorded pIC50 greater than or equal to 6?
**Result** condition not met

**Query** pIC50 >= 6 for Cc1ccc(-n2nc(C(F)(F)F)cc2NC(=O)Nc2ccc(Oc3ccnc4[nH]c(=O)n(C)c34)cc2)cc1 ?
**Result** condition not met

**Query** Could you please find out whether Cn1nc(C(C)(C)C)cc1NC(=O)Nc1ccc(Oc2ccnc3c2[nH]c(=O)n3C)cc1 has pIC50 that meets 6 or exceeds it?
**Result** condition not met

**Query** Check if pIC50 >= 6 (inclusive). Item: CC(C)(C)c1cc(NC(=O)Nc2ccc(Oc3ccnc4[nH]c(=O)[nH]c34)cc2F)n(-c2ccccc2)n1
**Result** condition met

**Query** Has Cc1ccc(-n2nc(C(C)(C)C)cc2NC(=O)Nc2ccc(Oc3ccnc4[nH]c(=O)n(C)c34)cc2)cc1 a recorded pIC50 greater than or equal to 6?
**Result** condition met

**Query** Quick check, pIC50 >= 6? CC(C)(C)c1cc(NC(=O)Nc2ccc(Sc3ccnc4[nH]c(=O)[nH]c34)cc2)n(-c2ccccc2)n1
**Result** condition met
